# target or test system: TBK1 (Homo sapiens, UniProt Q9UHD2)
# Sequence (Q9UHD2 whole entry, species assumed): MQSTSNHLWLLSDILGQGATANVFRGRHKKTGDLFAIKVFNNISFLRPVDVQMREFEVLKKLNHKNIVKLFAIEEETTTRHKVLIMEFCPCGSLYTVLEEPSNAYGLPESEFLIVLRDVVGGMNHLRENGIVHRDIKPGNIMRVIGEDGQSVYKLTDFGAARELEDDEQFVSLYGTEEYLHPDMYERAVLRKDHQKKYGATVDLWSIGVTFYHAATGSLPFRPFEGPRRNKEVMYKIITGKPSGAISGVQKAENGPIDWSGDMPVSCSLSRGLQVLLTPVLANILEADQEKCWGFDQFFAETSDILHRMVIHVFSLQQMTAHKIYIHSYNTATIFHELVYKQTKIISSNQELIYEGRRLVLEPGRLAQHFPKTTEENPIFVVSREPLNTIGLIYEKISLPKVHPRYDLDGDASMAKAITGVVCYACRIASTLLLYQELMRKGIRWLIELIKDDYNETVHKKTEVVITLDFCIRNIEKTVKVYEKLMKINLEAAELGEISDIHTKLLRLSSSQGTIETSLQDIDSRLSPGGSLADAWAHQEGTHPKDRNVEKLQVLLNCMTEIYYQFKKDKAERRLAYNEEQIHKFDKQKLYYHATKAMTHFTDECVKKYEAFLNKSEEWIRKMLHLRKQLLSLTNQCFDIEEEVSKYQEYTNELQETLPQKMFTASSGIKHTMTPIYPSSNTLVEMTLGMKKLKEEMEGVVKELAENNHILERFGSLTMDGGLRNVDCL
# procedure summary: TBK Biochemical Assay
# measurement parameters: read-out: TBK1 IC50
Where a name gives a salt, the structure may show the parent alone.
Below, each entry is listed with its recorded IC50.

Below, each entry is followed by its recorded IC50 result.
compound	IC50
COc1cc(C(=O)N[C@H]2[C@@H]3C[C@H]2CN(C)C3)ccc1-c1cc2nccc(-c3ccc(OC4CCOCC4)c(C#N)c3)c2o1 (single isomer, unassigned) [Compound 365]	< 100 nM
COc1cc(C(=O)N(C)CCO)ncc1-c1cc2nccc(-c3ccc(N4CC[C@@H](F)C4)c(C#N)c3)c2o1	< 100 nM
COc1cc(C(=O)N(C)C)ccc1-c1cc2nccc(-c3cc(C#N)c(OC4CCOCC4)c(C4CC4)c3)c2o1	100 to 1000 nM
COc1cc(C(=O)N2CCC(CO)CC2)ccc1-c1cc2nccc(-c3ccc(OC4CCOCC4)c(C#N)c3)c2o1	< 100 nM
C[C@@H]1COC[C@H](C)[C@@H]1Oc1ccc(-c2ccnc3cc(-c4ccc(C(=O)N(C)C)cc4)oc23)cc1C#N (single isomer, unassigned) [Compound 221, hydrochloride]	100 to 1000 nM

### Prompt Under TBK1 (Homo sapiens, UniProt Q9UHD2), report IC50 for "COc1cc(C(=O)N2CC[C@H](N(C)C)C2)cnc1-c1cc2nccc(-c3ccc(N4CC[C@H](F)C4)c(C#N)c3)c2o1"
### Response < 100 nM

###

# target or test system: IKKε (Homo sapiens)
# Sequence (Q14164 1-716): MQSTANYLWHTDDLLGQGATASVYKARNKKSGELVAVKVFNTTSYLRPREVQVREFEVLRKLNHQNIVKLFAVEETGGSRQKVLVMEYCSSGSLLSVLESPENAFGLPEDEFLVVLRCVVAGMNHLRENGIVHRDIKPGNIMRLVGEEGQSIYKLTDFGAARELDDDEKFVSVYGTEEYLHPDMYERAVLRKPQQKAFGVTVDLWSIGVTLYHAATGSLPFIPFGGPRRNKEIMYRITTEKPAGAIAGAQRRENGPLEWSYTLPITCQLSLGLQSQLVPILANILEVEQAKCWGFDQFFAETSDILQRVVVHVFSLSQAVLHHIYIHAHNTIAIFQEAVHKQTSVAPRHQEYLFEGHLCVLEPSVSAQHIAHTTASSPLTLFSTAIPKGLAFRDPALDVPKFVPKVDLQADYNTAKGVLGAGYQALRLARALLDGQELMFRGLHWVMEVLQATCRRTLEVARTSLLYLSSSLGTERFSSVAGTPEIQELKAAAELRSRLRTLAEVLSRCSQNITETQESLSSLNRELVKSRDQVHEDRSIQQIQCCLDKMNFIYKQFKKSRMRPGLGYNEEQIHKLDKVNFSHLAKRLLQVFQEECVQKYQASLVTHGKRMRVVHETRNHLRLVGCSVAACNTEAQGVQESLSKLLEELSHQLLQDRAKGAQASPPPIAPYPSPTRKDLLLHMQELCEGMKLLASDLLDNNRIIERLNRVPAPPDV
# procedure summary: IKKe Biochemical Assay
# measurement parameters: read-out: IKKε IC50
Where a name gives a salt, the structure may show the parent alone.
measurement type: IC50

Below, each entry is followed by its recorded IC50 result.
compound	IC50
COc1cc(C(=O)N(C)C)cnc1-c1cc2nccc(-c3ccc(OC4CCOCC4)c(C#N)c3)c2o1 [Compound 274, hydrochloride]	< 100 nM
COc1cc(C(=O)NC2CN3CCC2CC3)cnc1-c1cc2nccc(-c3ccc(N4CC[C@@H](F)C4)c(C#N)c3)c2o1 (stereo partly shown) [Compound 442]	< 100 nM

### Prompt Give me measured IC50, please, for this compound: "COc1cc(C(=O)N(C)C)cc(F)c1-c1cc2nccc(-c3ccc(NC4CCOCC4)c(C#N)c3)c2o1"
### Response < 100 nM

### Prompt Give me measured IC50, please, for this compound: "CN(C)C(=O)c1ccc(-c2cc3nccc(-c4ccc(OC5CCNCC5)c(C#N)c4)c3o2)nc1"
### Response 100 to 1000 nM
